target.or.test.system: Gal(a1-3)Gal
assay.notes: glycan array binding signal (z-score within array); higher = stronger binding
details: glycan notation: IUPAC condensed, linker removed
About 410 targets per protein were measured; listed, in parts, are those with the strongest signals and a random draw of the rest.
Quick list: glycan array binding signal (z-score) per entry.
endpoint.name: glycan array binding signal (z-score)

1) Langerin K299A/K313A (Homo sapiens), Q9UJ71 (protein) STLNAQIPELKSDLEKASALNTKIRALQGSLENMSKLLKRQNDILQVVSQGWKYFKGNFYYFSLIPKTWYSAEQFCVSRNSHLTSVTSESEQEFLYKTAGGLIYWIGLTKAGMEGDWSWVDDTPFNKVQSARFWIPGEPNNAGNNEHCGNIAAPSLQAWNDAPCDATFLFICKRPYVPSEP = -0.327
2) CD34 (Homo sapiens), P28906 (protein) MGSSHHHHHHSSGLVPRGSHMSTSLATSPTKPYTSSSPILSDIKAEIKCSGIREVKLTQGICLEQNKTSSCAEFKKDRGEGLARVLCGEEQADADAGAQVCSLLLAQSEVRPQCLLLVLANRTEISSKLQLMKKHQSDLKKLGILDFTEQDVASHQSYSQKT = 0.754
3) pTFF2 (Sus scrofa), P01359 (protein) KPAACRCSRQDPKNRVNCGFPGITSDQCFTSGCCFDSQVPGVPWCFKPLPAQESEECVMEVSARKNCGYPGISPEDCAARNCCFSDTIPEVPWCFFPMSVEACHY = -0.276
